The following molecules are listed with their measured Sol @ pH 7.4 values.
Test: Solubility at pH 7.4
Type: physicochemical
Readout Name: Sol @ pH 7.4

> print(dat)
                                         mol  readout.name       result
 1  O=C(O)c1cc(-c2ccc3ncc4ccc(=O)n(-c5ccc(C(=O)N6CCOCC6)cc5)c4c3c2)ccc1Cl  Sol @ pH 7.4  >80.0 ug/mL
 2  O=C(c1ccc(-n2c(=O)ccc3cnc4ccc(-c5ccc(Cl)cc5O)cc4c32)cc1)N1CCOCC1  Sol @ pH 7.4   <1.0 ug/mL
 3  Cc1cc(C(=O)NC2CC2)ccc1-n1c(=O)ccc2cnc3ccc(-c4ccc(C5(N)CC5)cc4)cc3c21  Sol @ pH 7.4    >74 ug/mL
 4  O=C(c1ccc(-n2c(=O)ccc3cnc4ccc(-c5ccc(Cl)cc5)cc4c32)cc1)N1CCCC1  Sol @ pH 7.4   <1.0 ug/mL
 5  COc1cc(C(=O)NC2CC2)ccc1-n1c(=O)ccc2cnc3ccc(-c4ccc(F)cc4)cc3c21  Sol @ pH 7.4     <1 ug/mL
 6  Cc1cc(C(=O)NCCCN(C)C)ccc1-n1c(=O)ccc2cnc3ccc(-c4ccc(Cl)cc4)cc3c21  Sol @ pH 7.4   65.6 ug/mL
 7  Cc1cc(C(=O)NCCN(C)C)ccc1-n1c(=O)ccc2cnc3ccc(-c4ccc(Cl)cc4)cc3c21  Sol @ pH 7.4   63.8 ug/mL
 8  Cn1c(=O)n(-c2cccc(C#N)c2)c2c3cc(-c4ccc(Cl)cc4)ccc3ncc21  Sol @ pH 7.4   <1.0 ug/mL
 9  CN(C)CCN1CCN(C(=O)c2ccc(-n3c(=O)ccc4cnc5ccc(-c6ccc(Cl)cc6)cc5c43)cc2)CC1  Sol @ pH 7.4   54.7 ug/mL
10  O=C(O)c1cc(Cl)ccc1-c1ccc2ncc3ccc(=O)n(-c4ccc(C(=O)N5CCOCC5)cc4)c3c2c1  Sol @ pH 7.4  >80.0 ug/mL
11  O=C(NC1CC1)c1ccc(-n2c(=O)ccc3cnc4ccc(-c5ccc(Cl)cc5)nc4c32)cc1  Sol @ pH 7.4     <1 ug/mL
12  COc1cc(C(=O)N2CCOCC2)ccc1-n1c(=O)ccc2cnc3ccc(-c4ccc(Cl)cc4)cc3c21  Sol @ pH 7.4    1.4 ug/mL
13  COc1cc(C(=O)N2CCOCC2)ccc1-n1c(=O)ccc2cnc3ccc(-c4ccc(F)cc4)cc3c21  Sol @ pH 7.4     <1 ug/mL
14  Cn1c(=O)n(-c2cccc(C#N)c2)c2c3cc(-c4ccc(CCN)cc4)ccc3ncc21  Sol @ pH 7.4      0 ug/mL
15  CCN(CC)CCCNC(=O)c1ccc(-n2c(=O)ccc3cnc4ccc(-c5ccc(Cl)cc5)cc4c32)c(C)c1  Sol @ pH 7.4   63.1 ug/mL
16  O=C(c1ccc(-n2c(=O)ccc3c[n+]([O-])c4ccc(-c5ccc(Cl)cc5)cc4c32)cc1)N(CCO)CCO  Sol @ pH 7.4    >78 ug/mL
17  Nc1ccc(-c2ccc3ncc4ccc(=O)n(-c5ccc(C(=O)N6CCOCC6)cc5)c4c3c2)cc1  Sol @ pH 7.4   <1.0 ug/mL
18  O=C(c1ccc(-n2c(=O)ccc3cnc4ccc(-c5ccc(Cl)cc5)nc4c32)cc1)N1CCOCC1  Sol @ pH 7.4   <1.0 ug/mL
19  Cc1ccc(C#N)cc1-n1c(=O)[nH]c2cnc3ccc(-c4ccc(Cl)cc4)cc3c21  Sol @ pH 7.4   <1.0 ug/mL
20  CNC(=O)c1ccc(-n2c(=O)ccc3cnc4ccc(-c5ccc(Cl)cc5)cc4c32)cc1  Sol @ pH 7.4   <1.0 ug/mL
21  CC(=O)n1c(=O)n(-c2cccc(C#N)c2)c2c3cc(-c4ccc(Cl)cc4)ccc3ncc21  Sol @ pH 7.4   <0.1 ug/mL
22  CN(C)Cc1ccc(-c2ccc3ncc4ccc(=O)n(-c5ccc(C(=O)N(C)C)cc5)c4c3c2)cc1  Sol @ pH 7.4  >70.0 ug/mL
23  CN(C)Cc1ccc(-c2ccc3ncc4ccc(=O)n(-c5ccc(C(=O)NC6CC6)cc5)c4c3c2)cc1  Sol @ pH 7.4  >72.0 ug/mL
24  Nc1cc(-c2ccc3ncc4ccc(=O)n(-c5ccc(C(=O)N6CCOCC6)cc5)c4c3c2)ccc1Cl  Sol @ pH 7.4   <1.0 ug/mL
25  COc1cc(C(=O)NC2CC2)ccc1-n1c(=O)ccc2cnc3ccc(-c4ccc(CN(C)C)cc4)cc3c21  Sol @ pH 7.4    >77 ug/mL
26  Cc1cc(C(=O)NCCN2CCCC2)ccc1-n1c(=O)ccc2cnc3ccc(-c4ccc(F)cc4)cc3c21  Sol @ pH 7.4      0 ug/mL
27  O=C(c1ccc(-n2c(=O)ccc3cnc4ccc(-c5ccc(Cl)cc5)cc4c32)cc1)N1C2CCCC1CC2  Sol @ pH 7.4   <1.0 ug/mL
28  O=C(NCCCN(CCO)CCO)c1ccc(-n2c(=O)ccc3cnc4ccc(-c5ccc(Cl)cc5)cc4c32)cc1  Sol @ pH 7.4      0 ug/mL
29  Cc1cc(=O)n(-c2ccc(C(=O)NC3CC3)cc2)c2c1cnc1ccc(-c3ccc(Cl)cc3)cc12  Sol @ pH 7.4     <1 ug/mL
